test: Mean volume of distribution at steady state in Swiss albino male mice at 1 mg/kg per compound (administered iv in a mixture of 5 compounds to 3 mice) assessed by LCMS/MS.; type: ADME, organism-based; settings: mouse, in vivo, read-out: Volume
readout: Vd (L/kg)
Give the value, in units of L/kg, as a plain number.

Look over these answered cases.
CC(C)c1nc2cnc(-c3cccc(C(F)(F)F)c3)cn2c1-c1ccc(OP(=O)(O)O)cc1F : 1.26
Fc1ccc(-c2cn3c(-c4ccc5[nH]ncc5c4F)c(C4CC4)nc3cn2)cc1C(F)(F)F : 4.37
COc1ccc(-c2c(C3CC3)nc3cnc(-c4cccc(C(F)(F)F)c4)cn23)cc1O : 4.58
COc1ccc(-c2c(C(C)C)nc3cnc(-c4cccc(C(F)(F)F)c4)cn23)cc1OP(=O)(O)O : 4.06
Cc1nc2cnc(-c3ccc(F)c(C(F)(F)F)c3)cn2c1-c1ccc(O)cc1F : 2.98
Fc1ccc(-c2cn3c(-c4ccc5[nH]ncc5c4)c(C(F)(F)F)nc3cn2)cc1C(F)(F)F : 6.69

What does the data say about its Vd? Entry: Oc1cc(F)c(-c2c(C3CCC3)nc3cnc(-c4ccc(F)c(C(F)(F)F)c4)cn23)c(F)c1
4.74

What does the data say about its Vd? Entry: Fc1ccc(-c2cn3c(-c4ccc5[nH]ncc5c4F)c(C(F)(F)F)nc3cn2)cc1C1CCC1
3.77

What does the data say about its Vd? Entry: CC(C)c1cc(-c2cn3c(-c4ccc5[nH]ncc5c4F)c(C(C)C)nc3cn2)ccc1F
4.48
